# Target: c-Myc/Max (Homo sapiens, UniProt P01106+P61244)
# Sequence (P01106 whole entry): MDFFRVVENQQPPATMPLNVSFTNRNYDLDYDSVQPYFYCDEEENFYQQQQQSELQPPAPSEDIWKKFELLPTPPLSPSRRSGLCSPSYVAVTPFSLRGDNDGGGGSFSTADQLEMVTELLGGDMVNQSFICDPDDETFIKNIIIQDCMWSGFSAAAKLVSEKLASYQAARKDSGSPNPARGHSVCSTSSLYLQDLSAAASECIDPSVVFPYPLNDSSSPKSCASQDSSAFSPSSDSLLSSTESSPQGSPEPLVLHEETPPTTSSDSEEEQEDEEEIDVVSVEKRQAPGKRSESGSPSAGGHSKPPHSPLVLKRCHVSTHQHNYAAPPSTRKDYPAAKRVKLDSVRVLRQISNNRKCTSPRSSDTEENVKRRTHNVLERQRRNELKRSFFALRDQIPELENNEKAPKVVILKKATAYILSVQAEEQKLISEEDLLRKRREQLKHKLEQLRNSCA
# Sequence (P61244 whole entry): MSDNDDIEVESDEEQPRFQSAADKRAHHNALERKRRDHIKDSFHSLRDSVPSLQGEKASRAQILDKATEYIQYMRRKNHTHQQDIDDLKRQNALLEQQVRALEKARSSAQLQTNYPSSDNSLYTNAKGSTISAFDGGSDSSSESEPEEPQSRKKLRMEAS
# Experiment Description: Binding affinity to human recombinant 15N labeled c-Myc-Max(S) heterodimer assessed as chemical shift up to 100 uM by NMR spectroscopy
Endpoint Label: Kd (µM)
Write the number in µM without appending the unit.

QUERY: Requested field: Kd. Item: CC(C)COc1cc(C(=O)O)ccc1NC(=O)c1ccc([N+](=O)[O-])c(OCc2cccc3ccccc23)c1
RESULT: 13

* * *

# Target: c-Myc/Max (Homo sapiens, UniProt P01106+P61244)
# Experiment Description: Disruption of human recombinant c-Myc-Max(S)/DNA (unknown origin) binding assessed as complex level at 100 uM by electrophoretic mobility shift assay relative to control
# Assay type: protein-complex assay
Lab note - cut at 90% for Activity: T if strictly below, F if not.

QUERY: For CC(C)COc1cc(C(=O)O)ccc1NC(=O)c1ccc([N+](=O)[O-])c(OCc2cccc3ccccc23)c1 , is the recorded Activity below the cut-off of 90%?
RESULT: T

QUERY: For CC(C)COc1cccc(C(=O)Nc2ccc(C(=O)O)cc2OCC(C)C)c1 , is the recorded Activity below the cut-off of 90%?
RESULT: F

QUERY: For CC(C)Oc1cc(C(=O)O)ccc1NC(=O)c1ccc([N+](=O)[O-])c(OC(C)C)c1 , is the recorded Activity below the cut-off of 90%?
RESULT: T

QUERY: For CC(C)COc1cc(C(=O)NCC(=O)O)ccc1NC(=O)c1ccc([N+](=O)[O-])c(OCC(C)C)c1 , is the recorded Activity below the cut-off of 90%?
RESULT: F

QUERY: For COC(=O)c1ccc(NC(=O)c2ccc([N+](=O)[O-])c(OCc3cccc4ccccc34)c2)c(OCC(C)C)c1 , is the recorded Activity below the cut-off of 90%?
RESULT: F

QUERY: For CC(C)COc1cc(C(=O)O)ccc1NC(=O)c1ccc([N+](=O)[O-])c(OCC(C)C)n1 , is the recorded Activity below the cut-off of 90%?
RESULT: T

QUERY: For CC(C)COc1cc(C(=O)Nc2ccc(C(=O)O)cc2OCC(C)C)ccc1N , is the recorded Activity below the cut-off of 90%?
RESULT: F

QUERY: For COC(=O)c1ccc(NC(=O)c2ccc([N+](=O)[O-])c(OCc3ccccc3)c2)c(OC2Cc3ccccc3C2)c1 , is the recorded Activity below the cut-off of 90%?
RESULT: F

QUERY: For COC(=O)c1ccc(NC(=O)c2ccc([N+](=O)[O-])c(OCc3cccc4ccccc34)c2)c(OC2Cc3ccccc3C2)c1 , is the recorded Activity below the cut-off of 90%?
RESULT: F

QUERY: For CC(C)COc1cc(C(=O)Nc2ccc(C(=O)O)cc2OCc2ccccc2)ccc1[N+](=O)[O-] , is the recorded Activity below the cut-off of 90%?
RESULT: F

QUERY: For CC(C)COc1cc(C(=O)Nc2ccc(C(=O)O)cc2OCc2ccccn2)ccc1[N+](=O)[O-] , is the recorded Activity below the cut-off of 90%?
RESULT: F

QUERY: For CC(C)COc1cc(NC(=O)c2ccc([N+](=O)[O-])cc2OCC(C)C)ccc1C(=O)O , is the recorded Activity below the cut-off of 90%?
RESULT: F

QUERY: For COC(=O)c1ccc(NC(=O)c2ccc([N+](=O)[O-])c(OC(C)C)c2)c(OC2Cc3ccccc3C2)c1 , is the recorded Activity below the cut-off of 90%?
RESULT: F

QUERY: For CC(C)COc1cc(C(=O)N(CC(=O)O)CC(=O)O)ccc1NC(=O)c1ccc([N+](=O)[O-])c(OCC(C)C)c1 , is the recorded Activity below the cut-off of 90%?
RESULT: F

# credit: ChEMBL document CHEMBL3425495
